# Tested on: AncSZ;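 further: 11-residue human phosphosite peptides and single-mutation variants displayed on the E. coli surface, counted by deep sequencing, each peptide's frequency after selection divided by its frequency in the unselected input library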;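 further: frequency after pTyr selection over input frequency; kinase dosed for 20-30% of maximal phosphorylation in three min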
# procedure-details: phosphorylation enrichment, bacterial display (enrichment ratio); higher = better substrate or ligand; peptides without Tyr show the background
// thresholds for phosphorylation enrichment classes: bottom bin = under 0.8, middle bin = from 0.8 up to 1, top bin = 1 and over

residues="SIKNKYVTALF [KCNH2_Y611_D609N_YF]" class_name="bottom bin"
residues="YTFNSYYMHWV [IGHV1-46_Y51_T49N]" class_name="top bin"
residues="SVSVNYGDLVQ [GRAP_Y101_Q104L]" class_name="bottom bin"
residues="SVTCTYSRALN [TP53_Y126_P128R]" class_name="top bin"
residues="NELTYYCCKKD [CD59_Y87]" class_name="top bin"
residues="DNEALYDICFR [TUBB2B_Y208]" class_name="top bin"
residues="LFSNAYLNDLA [ALDH1A1_Y119_YF]" class_name="top bin"
residues="SGRSGYCLGTR [SCO1_Y60_P58S]" class_name="bottom bin"
residues="PFTRNYYVQAV [CYBA_Y87_R90Q]" class_name="top bin"
residues="DFDNLYYWDQD [ERBB2_Y1221_A1216D]" class_name="top bin"
residues="RNYDTYTAGLS [RHBDD1_Y264]" class_name="middle bin"
residues="GGTPLYRDRQG [AGXT_Y194_M195R]" class_name="bottom bin"
residues="SVKVYYKKCWS [EPHA7_Y202]" class_name="middle bin"
residues="SSSPTYLDLPF [GLI3_Y168_P169L]" class_name="bottom bin"
residues="VLALWYFFLTN [ZDHHC23_Y127_H132N_YF]" class_name="top bin"
residues="MEYAKYGSLRG [RET_Y809_V804M]" class_name="bottom bin"
residues="GPTLSYGRDGR [MATR3_Y158]" class_name="bottom bin"
residues="DRLASSLDKVR [KRT10_Y160_Y160S]" class_name="bottom bin"
residues="GLGGGCGGASG [KRT8_Y54_Y54C]" class_name="bottom bin"
residues="KGSLPYSLILD [PKD1L2_Y406_N407S]" class_name="top bin"
residues="SETSRYLSELF [KCNJ3_Y67_D70E]" class_name="top bin"
residues="VTQEPYELYCE [CBL_Y368_Q367P]" class_name="top bin"
residues="VDSAHYQLLET [DTX3L_Y385_K386Q]" class_name="middle bin"
residues="SLGSPYGQPPR [PDLIM4_Y137]" class_name="bottom bin"
residues="CERLPYDANKW [FLT1_Y815_S818N]" class_name="top bin"
residues="RRIHRYRGHLW [VHL_Y112_S111R]" class_name="bottom bin"
residues="IIGNGYFFRVF [MYBPC3_Y1135_YF]" class_name="middle bin"
residues="KASRKYFAMKI [AKT3_Y173_G171R_YF]" class_name="bottom bin"
residues="DHFNQYEQQKM [CHD7_Y75_YF]" class_name="middle bin"
residues="FGLTLYPNSRE [MEP1A_Y472_V469L]" class_name="middle bin"
residues="YSQNICIQNRN [PKP2_Y631_Y631C]" class_name="middle bin"
residues="GSSKIYFLHAD [TLR5_Y108_P112A]" class_name="middle bin"
residues="FGLDHYQCDCT [PTGS1_Y54_R53H]" class_name="middle bin"
residues="FSCLPYGRLAF [SLC52A2_Y305_YF]" class_name="middle bin"
residues=ITKNPYDPPGR class_name="bottom bin"
residues="ETDTRYFDEEF [AKT1_Y437]" class_name="top bin"
residues="LTGIAYSLPHW [SLC22A14_Y291]" class_name="top bin"
residues="MFKPMYALFRT [HUWE1_Y4078_N4075K]" class_name="middle bin"
residues="PTTKTYFPHFG [HBA1_Y43_D48G]" class_name="bottom bin"
residues="YYSSEYHYVGG [CTSC_Y345]" class_name="top bin"
residues="EVASVYQSYQP [MAVS_Y92]" class_name="middle bin"
residues="TRLAQYDSNSK [BMX_Y216_S212R]" class_name="bottom bin"
residues="KLMTEYKRRKQ [ARFGEF3_Y2029_K2031R]" class_name="bottom bin"
residues="QKLPLYILENN [VPS13B_Y2774_S2773L]" class_name="middle bin"
residues="GDDLSYGDVPP [IRS1_Y151_E147D]" class_name="top bin"
residues="GYSRHCEDGYP [CTNND1_Y217_Y217C]" class_name="middle bin"
residues="QRPGPYDRPGA [HNRNPH2_Y210]" class_name="bottom bin"
residues="VDESLYKTHPQ [HK1_Y417_G414E]" class_name="middle bin"
residues="RRERPYGGGGG [FUS_Y526]" class_name="bottom bin"
residues="MDYRSYPHEYG [RBM10_Y44_R46H]" class_name="middle bin"
residues="LNEVGYDDIGG [VCP_Y203]" class_name="top bin"
residues="QNTGGYYDLYG [PTPN11_Y62_D61G]" class_name="top bin"
residues="GSTLSYFGLAA [P2RX7_Y343]" class_name="bottom bin"
residues="GVSFIYTIDGS [DCX_Y105_R102S_YF]" class_name="top bin"
